test: yeast display, Sf9 membrane polyspecificity reagent, FACS + sequencing; frameworks hold sequencing errors
MEASUREMENT TYPE: polyreactivity (PSR sort gate)

{"columns": ["SEQUENCE CODE", "OBS VALUE"],
 "data": [
  ["QVQLVESGGGLVQAGGSLRLSCAASGRTLVPYAMGWYRQAPGKERELVAAINSSGGSTYYADSVKGRFTISRDNAKNTVYLQMNSLKPEDTAVYYCAATRYSKYYWGQGTQVTVSS", "high polyreactivity"],
  ["QVQLVESGGGLVQAGGSLRLSCAASGSIFKYYAKGWYRQAPGKERELVAAITIGGNTNYADSVKGRFTISRDNAKNTVYLQMNSLKPEDTAVYYCATGGYYSAIVYGGYDYWGQGTQVTVSS", "low polyreactivity"],
  ["QVQLVESGGGLVQAGGSLRLSCAASGSIFSVNSMGWYRPAPGKERELVATIRTGDSTNYADSVKGRFTISRDNAKNTVYLQMNSLKPEDTAVYYCAAEWSSLNFDYWGHGTQVTVSS", "low polyreactivity"],
  ["QVQLVESGGGLVQAGGSLRLSCAASGSIFEPYAMGLYRQAPGKERELVAAIRWSGGSTYYADSVKGRFTISRDNAKNTVYLQMNSLKPEDTAVYYCAKYFPAGYYYWGQGTQVTVSS", "low polyreactivity"],
  ["QVQLVESGGGLVQAGGSLRLSCAASGFTLDDNGMGWYRQAPGKERELVASITWSGGSTYYADSVKGRFTISRDNAKNTVYLQMNSLKPEDTAVYYCNVGDPIGGFLSYWGGDYWGQGTQVTVSS", "low polyreactivity"],
  ["QVQLVESGGGLVQAGGSLRLSCAASGSTFTLYAMGGYIQAPGKERELVAAITSDDSTYYADSVKGRFTISRDNAKNTVYLQMNSLKPEDTAVYYCAADVYYGDFEMDYWGQGTQVTVSS", "low polyreactivity"],
  ["QVELVESGGGLVQAGGSLRLSCAASGRIFFYNGMGWYRQAPGKERELVAAINRSGGSTYYADSVKGRFTISRDNAKNTVYLQMNSLKPEDTAVYYCNAASFTVPMDYWGHGTQVTVSS", "low polyreactivity"],
  ["QVQLVESGGGLVQAGGSLRLSCAASGIIFHFNDMGWYRQAPGKERELVAAITSGGSTNYADSVKGRFTLSRDYAKKTVYLQMNSLKPEDTAVYYCNAEPPRGYTVSSGGEMDYWGQGTQVTVSS", "low polyreactivity"],
  ["QVQLVESGGGLVQAGGSLRLSCAASGSTFSIYARGWYRPAPGKERELVAAISYSDGTTYSADSVKGRFTISRDNAKNTDYVQMNSLKPEDTAVYYCATQQIWTSWYDRFDYWGQGTQVTVSS", "low polyreactivity"],
  ["QVQLVESGGGLVQAGGSLRLSCAASGNIFSTYAMGWDRQAPGKERELVAAISSRGTSTYYADSVKGRFTISRDNAKNTVYLQMNSLKPEDTAVYYCNAVIALQLDYWGQGTQVTVSS", "high polyreactivity"],
  ["QVQLVESGGGLVQAGGSLRLSCGASGNTFYPNAMGWYRQAPGKERELVAAITTSGVTTYYADSVKGSFTISRDNAKNTVYLQINSLKPEDTAVYYCAAYWSRDKYYYWGQGTQVTVSS", "low polyreactivity"],
  ["QVQLVESGGGLVQAGGSLRLSCAASGRTFRFNAMGWYRQAPGKESELVAAISSSGRTYYADSVKGRFTISRDNAKNTVYLQMNSLKPEDTAVYYCNKDPYLKLKMDYWGQGTQVTGSS", "high polyreactivity"],
  ["QVQLVESGGGLVQAGGSLRLSCAASGIIFRYYAMGWYRQAPGKERELVAAISRGGSTYYADSVKGRFTISRDNAKNTVYLQMNSLKPEDTAVYYCAATSYRRTGYNYWGQGTQVTVSS", "high polyreactivity"],
  ["QVQLVESGGGLVQAGGSLRLSCAASGLTFFYYAMGWYRQAPGKERELVAGISRSGGSTYYADSVKGRFTISRDNAKNTVYLQMISLKPEDTAVYYCAKRTLVASYIYREGEYWGQGTQVTVSS", "high polyreactivity"],
  ["QVQLVESGGGLVQAGGSLRLSCAASGSIFTENAMGWYRQAPGKERELVATITITGSTNYADSVKGRFTISRDNAKNTVYLQMNSLKPEDTAVYYCNADLYIAFSASAYDYWGQGTQVTVSS", "low polyreactivity"],
  ["QVQLVESGGGLVQAGGSLRLSCAASGRIFYSYAMGWYRQAPGKERELVAAITDSGGSTYADSVKGRFTISRDNAKNTVYLQMNSLKPEDTAVYADSTYNWYYYYWGQGTQVTVSS", "low polyreactivity"],
  ["QVQLVESGGGLVQAGGSLSLSCAASGSIFRWYAMGWYRQAPGKERELVALISWRGGSTYADSVKGRFTISRDNAKNTVYLQMNSLKPEDTADYYCNARPGSSYWYDAQWGEYGYWGQGTQVTVSS", "high polyreactivity"],
  ["QVQLVESGGGLVQAGGSLRLSCAASGFIFYHNAMGWYRQAPGKERELVAVISSGGSTYYADSVKGRFTISRDNAKNTVYLQMNSLKPEDTAVYYCAALYYGWSGSYAMDYWGQGTQVTVSS", "high polyreactivity"],
  ["QVPLVESGGGLVQAGGSLRLSCAASGSTFRRYGMGWYREAPGKERELFAAISKGGTRTYYADSVKGRFTISRDNAKNTVYLQMNSLKPEDTAVYYCNKAWYAYGPVYASWYGEYDYWGLGTQVTVSS", "high polyreactivity"],
  ["QVQLVESGGGLVQAGGSLRLSCAASGRIFRSYAMGWYRQAPGKERELFAAISYSGGSTYYADSVKGRFTISRDNAKNTVYLQMNSLKPEDTAVYYCAALPGERKYIYYGYDYWGQGTQVTVSS", "high polyreactivity"],
  ["QVQLVESGGGLVQAGGSLRLSCAASGRTFYVYTMGWYRQAPGKERELVAGISYSGGSTYYADSVKGRFTISRDNAKNTVYLQMNSLKPEDTAVYYCNRGLAARVGRGDYWGQGTQVTVSS", "low polyreactivity"]
]}
